Hello, the source for this data is patent US20220177587A1, in case you need it.

- measured-on: human CTLA-4 (human) (UniProt P16410)
- Sequence (P16410 36-223): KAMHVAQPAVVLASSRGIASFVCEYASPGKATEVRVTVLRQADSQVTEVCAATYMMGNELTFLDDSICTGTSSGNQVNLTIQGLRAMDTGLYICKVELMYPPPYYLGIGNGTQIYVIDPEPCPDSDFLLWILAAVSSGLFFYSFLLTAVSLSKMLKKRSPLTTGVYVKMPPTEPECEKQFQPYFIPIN
- method-description: flow cytometry, CHO cells expressing huCTLA-4
measured-parameter: MFI at 33.3 nM (MFI)

variant CD80 IgV-Fc E35D/D46V/M47L (Fc fusion) VIHVTKEVKEVATLSCGHNVSVEELAQTRIYWQKDKKMVLTMMSGVLNIWPEYKNRTIFDITNNLSIVILALRPSDEGTYECVVLKYEKDAFKREHLAEVTLSVKAD ... 45000
variant CD80 IgV-Fc E35D/N48K/K89N (Fc fusion) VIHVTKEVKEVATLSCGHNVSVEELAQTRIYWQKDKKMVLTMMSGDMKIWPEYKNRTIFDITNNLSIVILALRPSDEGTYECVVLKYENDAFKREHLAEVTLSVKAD ... 34700
variant CD80 IgV-Fc E35D/M47V (Fc fusion) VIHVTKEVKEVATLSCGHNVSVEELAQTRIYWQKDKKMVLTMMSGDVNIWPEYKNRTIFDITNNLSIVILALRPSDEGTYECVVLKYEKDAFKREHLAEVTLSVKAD ... 44600
variant CD80 IgV-Fc E35D/M47V/N48K/V68M/L85Q (Fc fusion) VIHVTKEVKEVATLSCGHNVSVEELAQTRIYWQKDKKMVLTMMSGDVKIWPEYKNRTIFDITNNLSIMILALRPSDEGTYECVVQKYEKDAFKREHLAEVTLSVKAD ... 26100
variant CD80 IgV-Fc E35D/M47V/V68M/L85Q/K89N (Fc fusion) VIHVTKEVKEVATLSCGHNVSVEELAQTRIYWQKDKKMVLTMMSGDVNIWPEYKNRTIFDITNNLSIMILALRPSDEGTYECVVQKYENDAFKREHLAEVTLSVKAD ... 30300
variant CD80 IgV-Fc M47L (Fc fusion) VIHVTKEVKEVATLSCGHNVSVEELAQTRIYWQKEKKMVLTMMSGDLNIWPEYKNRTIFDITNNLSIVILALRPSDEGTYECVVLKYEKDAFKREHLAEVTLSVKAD ... 30800
variant CD80 IgV-Fc E35D/M47V/V68M/K89N (Fc fusion) VIHVTKEVKEVATLSCGHNVSVEELAQTRIYWQKDKKMVLTMMSGDVNIWPEYKNRTIFDITNNLSIMILALRPSDEGTYECVVLKYENDAFKREHLAEVTLSVKAD ... 29500
variant CD80 IgV-Fc E35D/V68M/L85Q (Fc fusion) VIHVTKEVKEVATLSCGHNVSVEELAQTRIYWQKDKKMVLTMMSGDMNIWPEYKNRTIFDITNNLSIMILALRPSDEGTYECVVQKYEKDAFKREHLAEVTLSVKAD ... 42800
variant CD80 IgV-Fc E35D/D46V/M47L/L85Q (Fc fusion) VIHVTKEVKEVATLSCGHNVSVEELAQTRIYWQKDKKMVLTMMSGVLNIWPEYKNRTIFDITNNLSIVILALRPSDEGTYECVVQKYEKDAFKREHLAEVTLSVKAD ... 38200
variant CD80 IgV-Fc D46V/L85Q (Fc fusion) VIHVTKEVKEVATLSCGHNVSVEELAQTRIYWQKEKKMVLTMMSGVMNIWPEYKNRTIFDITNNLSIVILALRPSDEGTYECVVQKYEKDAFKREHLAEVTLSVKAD ... 41900
variant CD80 IgV-Fc M47V (Fc fusion) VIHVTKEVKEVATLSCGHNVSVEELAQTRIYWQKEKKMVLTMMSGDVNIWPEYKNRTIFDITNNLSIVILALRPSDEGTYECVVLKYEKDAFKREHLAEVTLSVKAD ... 33300
